Hello, the source for this data is patent US20140315933A1, in case you need it.

# tested_target: URAT-1 transporter (Homo sapiens, UniProt Q96S37)
# Construct: expressed in transfected cells
# Sequence (Q96S37 with tags, fused parts or gaps): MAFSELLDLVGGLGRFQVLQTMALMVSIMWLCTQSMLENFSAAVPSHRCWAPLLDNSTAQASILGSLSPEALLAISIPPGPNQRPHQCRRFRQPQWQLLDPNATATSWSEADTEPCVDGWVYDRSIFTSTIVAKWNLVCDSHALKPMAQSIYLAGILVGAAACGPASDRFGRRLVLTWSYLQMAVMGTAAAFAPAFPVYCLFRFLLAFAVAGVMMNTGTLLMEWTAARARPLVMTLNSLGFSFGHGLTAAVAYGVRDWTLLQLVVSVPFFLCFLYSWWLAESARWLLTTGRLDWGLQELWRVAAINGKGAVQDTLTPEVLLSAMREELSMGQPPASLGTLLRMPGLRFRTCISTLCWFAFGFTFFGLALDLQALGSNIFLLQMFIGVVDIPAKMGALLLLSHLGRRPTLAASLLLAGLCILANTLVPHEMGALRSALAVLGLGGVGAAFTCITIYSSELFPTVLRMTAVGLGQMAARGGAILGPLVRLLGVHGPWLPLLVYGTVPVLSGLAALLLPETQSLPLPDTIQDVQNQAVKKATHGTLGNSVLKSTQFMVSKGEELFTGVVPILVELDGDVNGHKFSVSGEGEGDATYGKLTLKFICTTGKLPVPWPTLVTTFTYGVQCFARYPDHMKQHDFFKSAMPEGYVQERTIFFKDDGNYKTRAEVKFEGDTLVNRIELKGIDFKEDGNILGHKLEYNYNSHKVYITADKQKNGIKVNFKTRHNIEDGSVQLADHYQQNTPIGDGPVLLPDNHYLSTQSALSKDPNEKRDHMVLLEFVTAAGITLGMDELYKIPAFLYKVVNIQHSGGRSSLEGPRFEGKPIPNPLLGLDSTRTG
# experimental_details: URAT-1 inhibitor activity: [14C]-uric acid uptake into CHO-URAT1(L)GFP#8 (CHO#8) cells, scintillation proximity
# Format: cell-based
measurement_name: IC50 (nM)
Respond with the bare value in nM.

> print(dat)
                      smiles.representation  units  numeric.readout
1  COc1cc(Cl)ccc1Oc1ccc(S(=O)(=O)Nc2nncs2)c(Cl)c1     nM              340

Exercise: Quick check: IC50 on URAT-1 transporter (Homo sapiens, UniProt Q96S37), item "N#Cc1cc(S(=O)(=O)Nc2ncc(F)s2)ccc1Oc1ccc(F)cc1Cl" ?
Key: 414

###

# tested_target: URAT-1 transporter (Homo sapiens, UniProt Q96S37)
# Construct: expressed in transfected cells
# experimental_details: URAT-1 inhibitor activity: [14C]-uric acid uptake into CHO-URAT1(L)GFP#8 (CHO#8) cells, scintillation proximity
# Assay type: cell-based
pIC50: −log10 of the molar value.
Would you mind labelling by pIC50? At or over 6 is label 1, under is label 0.

> print(dat)
                                   compound    label
1  O=S(=O)(Nc1nncs1)c1cc(F)c(Oc2ccc(F)c(F)c2)cc1F [compound 209]  label 0
2  N#Cc1cc(S(=O)(=O)Nc2nccs2)ccc1Oc1cccc(CO)c1 [compound 177]  label 1
3  Cc1ccc(Oc2ccc(S(=O)(=O)Nc3ncc(F)s3)cc2C#N)c(C)c1 [Example 101]  label 0

Exercise: Is pIC50 for O=S(=O)(Nc1cscn1)c1ccc(Oc2ccc(F)c(F)c2)cc1Cl [compound 237] at or above 6?
Key: label 0

Exercise: Reported pIC50 reaches at least 6 for CC(C)(C)c1cccc(Oc2ccc(S(=O)(=O)Nc3ncc(F)s3)cc2C#N)c1 [Example 137] ?
Key: label 0

Exercise: Quick check: does Cc1ccc(Oc2ccc(S(=O)(=O)Nc3ncns3)cc2C#N)cc1 [compound 258] have pIC50 greater than or equal to 6?
Key: label 0

###

# tested_target: URAT-1 transporter (Homo sapiens)
# Construct: expressed in transfected cells
# experimental_details: URAT-1 inhibitor activity: [14C]-uric acid uptake into CHO-URAT1(L)GFP#8 (CHO#8) cells, scintillation proximity
# Type: cell-based
measurement_name: log10(IC50) (log10 of the value in nM)
Give log10 of IC50, with IC50 taken in nM.

Below, each entry is followed by its recorded log10(IC50) result.
> print(dat)
                      smiles.representation                      tested.target  numeric.readout
1  N#Cc1cc(S(=O)(=O)Nc2ncns2)ccc1Oc1ccc(F)cc1F  URAT-1 transporter (Homo sapiens)             2.94
2  COc1cc(F)cc(Oc2cc(F)c(S(=O)(=O)Nc3nncs3)cc2Cl)c1  URAT-1 transporter (Homo sapiens)             3.00
3  N#Cc1cc(F)ccc1Oc1ccc(S(=O)(=O)Nc2ncns2)cc1C#N  URAT-1 transporter (Homo sapiens)             3.73
4  N#Cc1cc(S(=O)(=O)Nc2ncc(F)s2)ccc1Oc1ccc(F)c(F)c1F  URAT-1 transporter (Homo sapiens)             3.02
5  Cc1c(Oc2ccc(S(=O)(=O)Nc3ncns3)cc2C#N)ccc(F)c1F  URAT-1 transporter (Homo sapiens)             2.63

Exercise: Field request: log10(IC50) | item: "N#Cc1ccc(Oc2ccc(S(=O)(=O)Nc3nccs3)cc2F)cc1Cl"
Key: 2.71

Exercise: Name the recorded log10(IC50) for "N#Cc1cc(S(=O)(=O)Nc2nncs2)ccc1Oc1cnc(OC(F)F)c(Cl)c1" .
Key: 3.31

Exercise: Entry under review: "Cc1cc(Cl)ccc1Oc1ccc(S(=O)(=O)Nc2ncc(F)s2)cc1C#N" . Reported log10(IC50)?
Key: 3.16

###

# tested_target: URAT-1 transporter (Homo sapiens, UniProt Q96S37)
# Construct: expressed in transfected cells
# experimental_details: URAT-1 inhibitor activity: [14C]-uric acid uptake into CHO-URAT1(L)GFP#8 (CHO#8) cells, scintillation proximity
# Assay type: cell-based
The entries below come with measured pIC50 values attached.
Remember the convention: pIC50 equals -log10 of concentration in molar.

> print(dat)
                      smiles.representation                             tested.target  numeric.readout
1  CCc1cc(Oc2ccc(S(=O)(=O)Nc3ncc(F)s3)cc2C#N)ccc1Cl  URAT-1 transporter (Homo sapiens, UniProt Q96S37)             6.27
2  N#Cc1cc(S(=O)(=O)Nc2ncns2)ccc1Oc1cccc(Cl)c1F  URAT-1 transporter (Homo sapiens, UniProt Q96S37)             5.71
3  CC(C)Oc1ccc(Cl)cc1Oc1ccc(S(=O)(=O)Nc2ncns2)cc1C#N  URAT-1 transporter (Homo sapiens, UniProt Q96S37)             5.86
4  N#Cc1cc(Oc2ccc(S(=O)(=O)Nc3ncc(Cl)s3)cc2C#N)ccc1F  URAT-1 transporter (Homo sapiens, UniProt Q96S37)             6.08

Exercise: What does the record list as pIC50 for "N#Cc1cc(S(=O)(=O)Nc2nccs2)ccc1Oc1ccc(Br)cc1CO" ?
Key: 5.67

###

# tested_target: URAT-1 transporter (Homo sapiens)
# Construct: expressed in transfected cells
# experimental_details: URAT-1 inhibitor activity: [14C]-uric acid uptake into CHO-URAT1(L)GFP#8 (CHO#8) cells, scintillation proximity
# Format: cell-based
measurement_name: IC50 (µM)
Give a bare numeral; the unit µM is implied.

> print(dat)
                      smiles.representation  measurement.name  numeric.readout
1  CN(C)c1ccc(Oc2ccc(S(=O)(=O)Nc3nccs3)cc2C#N)cn1              IC50             1.08
2  COc1cc(OC)c(Oc2ccc(S(=O)(=O)Nc3ncc(Cl)s3)cc2C#N)c(OC)c1              IC50             1.67

Exercise: URAT-1 transporter (Homo sapiens) / IC50 / "COc1cc(F)cc(Oc2ccc(S(=O)(=O)Nc3ncc(F)s3)cc2C#N)c1" : value?
Key: 0.581

###

Listed compounds paired with reported IC50
# tested_target: URAT-1 transporter (Homo sapiens, UniProt Q96S37)
# Construct: expressed in transfected cells
# experimental_details: URAT-1 inhibitor activity: [14C]-uric acid uptake into CHO-URAT1(L)GFP#8 (CHO#8) cells, scintillation proximity
# Type: cell-based

Exercise: Given COc1ccc(Oc2cc(F)c(S(=O)(=O)Nc3nncs3)cc2Cl)c(Cl)c1 [compound 317] , state its recorded IC50.
Key: 1630 nM

Exercise: Sample N#Cc1cc(S(=O)(=O)Nc2ncc(F)s2)ccc1Oc1c(F)cccc1F [Example 94] — what was its IC50?
Key: 621 nM

Exercise: Request the reported IC50 associated with COc1ccc(C#N)cc1Oc1cc(F)c(S(=O)(=O)Nc2nncs2)cc1Cl [compound 309]
Key: > 10000 nM

###

# tested_target: URAT-1 transporter (Homo sapiens, UniProt Q96S37)
# Construct: expressed in transfected cells
# experimental_details: URAT-1 inhibitor activity: [14C]-uric acid uptake into CHO-URAT1(L)GFP#8 (CHO#8) cells, scintillation proximity
# Assay type: cell-based
measurement_name: IC50 (nM)
# value in nM; strip the unit string

Example entries and their recorded answers appear below.
> print(dat)
                      smiles.representation  measurement.name  numeric.readout
1  O=S(=O)(Nc1ncns1)c1cc(F)c(Oc2ccc(F)c(F)c2)c(F)c1              IC50             2190
2  CC(C)c1cccc(Oc2ccc(S(=O)(=O)Nc3ncns3)cc2Cl)c1              IC50             1440
3  N#Cc1cc(S(=O)(=O)Nc2ncns2)ccc1Oc1cccc(Cl)c1              IC50             1130

Please examine the following record next.
Exercise: Recorded IC50 of "COc1cc(F)c(F)cc1Oc1ccc(S(=O)(=O)Nc2ncns2)cc1C#N" , please.
Key: 957

###

# tested_target: URAT-1 transporter (Homo sapiens, UniProt Q96S37)
# Construct: expressed in transfected cells
# experimental_details: URAT-1 inhibitor activity: [14C]-uric acid uptake into CHO-URAT1(L)GFP#8 (CHO#8) cells, scintillation proximity
# Assay type: cell-based
measurement_name: pIC50
The read-out pIC50 is expressed as -log10 of concentration in moles per litre.

> print(dat)
                                   molecule  measurement.name  numeric.readout
1  CCOc1cccc(Oc2ccc(S(=O)(=O)Nc3ncns3)cc2C#N)c1 [compound 280]             pIC50             5.64
2  CCc1cccc(Oc2ccc(S(=O)(=O)Nc3ncc(F)s3)cc2C#N)c1 [Example 99]             pIC50             5.79
3  COc1cc(C)cc(Oc2ccc(S(=O)(=O)Nc3ncns3)cc2C#N)c1 [compound 292]             pIC50             5.95

Let us examine a further case.
Exercise: // returns reported pIC50 for input CC(C)Nc1ccc(Oc2ccc(S(=O)(=O)Nc3nccs3)cc2C#N)cn1 [Example 188]
Key: 6.16
